method-description: Cytotoxicity against human U-937 cells
Assay type: toxicity, cell-based
result-type: CC50 (µM)

>  <compound>
CCC(C)[C@H](c1nc2ccccc2n1Cc1cn(-c2ccc(F)cc2)nn1)N1C(=O)c2ccccc2C1=O (stereo partly specified)

>  <result-type>
CC50

>  <assay-value>
28.8

$$$$

* * *

method-description: Therapeutic index, ratio of CC50 for human HepG2 cells to IC50 for chloroquine-sensitive synchronized late stage trophozoite Plasmodium falciparum 3D7 infected in human RBC
Type: toxicity
conditions-used: read-out: TI
Known selectivity ratio of a selection of molecules

>  <molecule>
CCC(C)[C@H](c1nc2ccccc2n1Cc1cn(-c2ccc(C(F)(F)F)cc2)nn1)N1C(=O)c2ccccc2C1=O (stereo not given in full)

>  <selectivity ratio>
156

$$$$
>  <molecule>
Cc1ccc2c(c1)C(=O)N([C@H](CC(C)C)c1nc3ccccc3n1Cc1cn(-c3ccc(Cl)cc3)nn1)C2=O

>  <selectivity ratio>
> 135

$$$$
>  <molecule>
CCC(C)[C@H](c1nc2ccccc2n1Cc1cn(-c2ccc(F)cc2)nn1)N1C(=O)c2ccc(C)cc2C1=O (stereo not given in full)

>  <selectivity ratio>
46

$$$$
>  <molecule>
CC(C)[C@H](c1nc2ccccc2n1Cc1cn(-c2ccc(C(F)(F)F)cc2)nn1)N1C(=O)c2ccccc2C1=O

>  <selectivity ratio>
43

$$$$
>  <molecule>
CCC(C)[C@H](c1nc2ccccc2n1Cc1cn(Cc2ccccc2)nn1)N1C(=O)c2ccccc2C1=O (stereo not given in full)

>  <selectivity ratio>
123

$$$$
